System: K-562 leukemia
Assay: NCI-60 one-dose screen, 48 h (100 = growth as untreated, 0 = no growth, -100 = all killed)
Details: 10 µM unless noted
About 83,000 compounds went through this panel and 20% of them were active in at least one assay; those are over-represented in the sample as a whole.
Measured endpoint: growth (%)
Give bare numbers, in %.

Here are 2 compounds together with their reported answers.
O=C(O)c1ccc(-n2cc(/C=N/Nc3ccccc3F)c(-c3ccc(O)cc3)n2)cc1 13
O=C(CSc1nnc(-c2ccc(Cl)cc2)o1)Nc1ccc(C(=O)/C=C/c2ccccc2)cc1 99.3

Here are 3 compounds. What values of growth were reported for them?
1. CCCCCCCCCCCCCCCCCCNCc1ccc(Cl)cc1
2. O=C(O)c1cccc(S(=O)(=O)c2ccccc2)c1
3. O=C1c2ccccc2C(=O)c2c(NCCN=Cc3c(O)ccc4ccccc34)cccc21

OUT:
[-65.7, 107, 77.7]

* * *

Test system: SK-MEL-2 melanoma
Assay: NCI-60 one-dose screen, 48 h (100 = growth as untreated, 0 = no growth, -100 = all killed)
Conditions: 10 µM unless noted
This is part of a sample that, as a whole, favours compounds with a hit. Of some 83,000 tested, about 20% had one in any assay.
Measured endpoint: growth (%)
Numbers only, in %.

Here are 2 compounds. What values of growth were reported for them?
1. CS(=O)(=O)Nc1cccc(-c2ccc3ncnc(Nc4ccc(F)c(Cl)c4)c3c2)c1
2. CC1=C[S+](c2ccccc2)c2cccc3cc4ccccc4c1c23 (stereo not given)

OUT:
1. -4.95
2. -65.2

* * *

Test system: OVCAR-8 ovarian
Assay: NCI-60 one-dose screen, 48 h
Settings: 10 µM unless noted
Compounds without any hit were thinned out: in the full panel of roughly 83,000, 20% have a hit. The source made the active and inactive calls. How the source made its calls: active means growth percent below 10; inactive means the rest.
Outcomes you can answer with include only these: Y (active), N (inactive)

Reference set, count: 6
Compound	Class
CC(=O)N1N=C(CCC(=O)c2nc3ccc([N+](=O)[O-])cc3[nH]2)OC1c1ccc(O)cc1 (stereo not given)	N
O=C(Nc1ccc(-n2cc(-c3ccncc3)c(-c3ccc(O)c(Cl)c3)n2)cc1)Nc1cccc(Cl)c1Cl	N
CC(=O)O[C@@H]1[C@@H](OC(C)=O)[C@H](OC(C)=O)CO[C@H]1Nc1cccc2ccccc12	N
CC(=O)Nc1ccc(OC(=O)c2ccccc2O)cc1	N
O=C(NC(=S)Nc1ccc(Cl)cc1)c1ccccc1	N
Nc1nc(Cl)c2c(C(F)(F)F)cn(CC3CCNCC3)c2n1	Y

IN: Recorded test call requested for COc1ccc(/C=C2\CS(=O)(=O)C/C(=C\c3ccc(OC)cc3)C2=O)cc1
OUT: Y

IN: Repeat with OCc1cn(-c2ccc(Cl)cc2)nc1-c1ccc(O)cc1
OUT: N

IN: Repeat with CS(=O)(=O)Nc1cccc(-c2ccc3ncnc(Nc4ccc(F)c(Cl)c4)c3c2)c1
OUT: N

IN: Repeat with Cc1ccn2cc(Cc3cc(=O)oc4c3ccc3ccccc34)c(=O)nc2c1
OUT: N

* * *

Tested on: HS 578T breast
Assay: NCI-60 one-dose screen, 48 h (100 = growth as untreated, 0 = no growth, -100 = all killed)
Details: 10 µM unless noted
About 83,000 compounds went through this panel and 20% of them were active in at least one assay; those are over-represented in the sample as a whole. The source made the active and inactive calls. The calls were made as follows: active = growth percent below 10; inactive = the rest.
Could you please report measured growth for the items listed next?

Here are 3 compounds together with their reported answers.
Compound	Test system	Measured endpoint	Reading
CC12CCC3C(CCC4CC(O)CCC43C)C1C/C(=C/O)C(=O)O2 (stereo not drawn)	HS 578T breast	growth	98.4% (inactive)
O=C(c1cc(-c2ccc(Cl)cc2)nc2ccccc12)N1N=C(c2ccccc2)CC1c1cc(-c2ccccc2)nn1-c1ccccc1 (stereo not drawn)	HS 578T breast	growth	89.3% (inactive)
CC1=C[S+](c2ccccc2)c2cccc3cc4ccccc4c1c23 (stereo not drawn)	HS 578T breast	growth	69.5% (inactive)

Here are 7 compounds. What values of growth were reported for them?
1. Cc1ccc2nc(-c3ccc(-n4on4-c4ccc(/C=C/c5ccc(-n6on6-c6ccc(-c7nc8ccc(C)cc8s7)cc6)cc5S(=O)(=O)O)c(S(=O)(=O)O)c4)cc3)sc2c1
2. CCCCCCCCCCCCCCCC(=O)NS(=O)(=O)OC[C@H]1O[C@@H](n2cnc3c(N)ncnc32)[C@H](O)[C@@H]1O
3. Cc1cc(-c2ccccc2)nc2ccccc12
4. CN(C)c1ccc(/C=N/N=C(N)N)cc1
5. CCCCCn1ncc(-c2c(O)c(O)cc3c(O)c(-c4c(C)cc5c(-c6cnn(CCCCC)n6)c(O)c(O)cc5c4O)c(C)cc23)n1
6. COc1ccc(-c2coc3c(CO)c(O)ccc3c2=O)cc1
7. COc1ccc(-c2[nH]c3ccccc3c2/C=C(\C#N)S(=O)(=O)c2ccccc2)cc1

OUT:
1: 116% (inactive); 2: -14.6% (active); 3: 97.3% (inactive); 4: 78.2% (inactive); 5: 31% (inactive); 6: 57.2% (inactive); 7: 23.8% (inactive)

Here are 5 compounds. What values of growth were reported for them?
1. O=C(CSc1nnc(-c2ccc(Cl)cc2)o1)Nc1ccc(C(=O)/C=C/c2ccccc2)cc1
2. Cc1ccc2c(C3C(C#N)=C(N)Oc4cc5ccccc5cc43)cc(=O)oc2c1 (stereo not drawn)
3. Cn1cnc([N+](=O)[O-])c1N1c2ccncc2Sc2ccncc21
4. C=CCOc1ccc(/C(Cl)=N/N=C(\Cl)c2cc(OC)c(OC)c(OC)c2)cc1
5. COc1cc(Nc2ncccc2C(=O)Nc2nc3ccc(F)cc3s2)cc(OC)c1OC

OUT:
1. 101% (inactive)
2. 51.6% (inactive)
3. 98.2% (inactive)
4. 75.5% (inactive)
5. 72.8% (inactive)

Here are 6 compounds. What values of growth were reported for them?
1. COc1cc(/C=C/C(=O)c2ccc(Oc3ncnc4ccccc34)cc2)cc(OC)c1OC
2. CN(C)CCCOc1c(Br)cc(/C=C/C(=O)N(C)CCc2cc(Br)c(OCCCN(C)C)c(Br)c2)cc1Br
3. CCCCOc1c(N)cc(Cl)cc1C(=O)OCCN(CC)CC
4. C=C1C(=O)O[C@H]2[C@H]1CC/C(COC(=O)c1ccc(C#N)cc1)=C\CC[C@@]1(C)O[C@@H]21
5. CC(C)[C@@H]1NC(=O)[C@]2(C)CSC(=N2)c2ccnc(c2)CNC(=O)C[C@@H](/C=C/CCS)OC1=O
6. C=C1C(=O)O[C@H]2[C@H]1CC/C(COC(=O)c1cccc3ccccc13)=C\CC[C@@]1(C)O[C@@H]21

OUT:
1. 97.1% (inactive)
2. 75.7% (inactive)
3. 99.7% (inactive)
4. 70% (inactive)
5. 9.92% (active)
6. 2.83% (active)

Here are 2 compounds. What values of growth were reported for them?
1. CS(=O)(=O)Nc1cccc(-c2ccc3ncnc(Nc4ccc(F)c(Cl)c4)c3c2)c1
2. C#C[C@@]1(O)[C@@H](CO)O[C@@H](n2cc(Br)c3c(Cl)ccnc32)[C@@H]1O

OUT:
11.5% (inactive)
40.9% (inactive)
